The origin of these recorded values is ChEMBL document CHEMBL4513216.

Assay: Toxicity liver stage against HepG2, at 10uM
Format: cell-based
Design: test concentration 10 uM, cell line HepG2-A16-CD81EGFP
Conditions: human, HepG2-A16-CD81EGFP cells; read-out: INHIBITION
quantity kind: cytotoxicity at 10 µM (%)
All answers are understood in %, so give the number only.

Examples with answers:
- molecule: "CN(Cc1cscn1)Cc1cc2c(cc1Br)OCO2"
  quantity kind: "cytotoxicity at 10 µM"
  data value: -4
- molecule: "CC(=O)N1CCCN(C(=O)NCCc2ccc(Cl)s2)CC1"
  quantity kind: "cytotoxicity at 10 µM"
  data value: -2.24
- molecule: "Cn1ccc(C(=O)N2CCC(Cc3ccc4ncccc4c3)CC2)n1"
  quantity kind: "cytotoxicity at 10 µM"
  data value: 13.7

Recorded cytotoxicity at 10 µM of Cc1noc(C)c1CN1C[C@@H]2C[C@H](C(=O)NCC3CC3)N(C)[C@@H]2C1 , please.
-1.24

Bench note: what cytotoxicity at 10 µM did CCOCC(=O)N1CC[C@H]2O[C@@H](C)C[C@H]2C1 show?
-67.9

====

Recorded cytotoxicity at 10 µM, one value per entry.
Test: Toxicity liver stage against HepG2, at 10uM
Assay type: cell-based
Set-up: test concentration 10 uM, cell line HepG2-A16-CD81EGFP
Details: human, HepG2-A16-CD81EGFP cells; read-out: INHIBITION
The reply should be a number in %, with the unit left off.

For orientation, consider the following solved cases.
- molecule: "COc1ccc(-c2ccc(C(=O)NCCCC(N)=O)c(F)c2)c(F)c1"
  quantity kind: "cytotoxicity at 10 µM"
  data value: 0.393
- molecule: "Cc1ccc(-c2nc(CCNC(=O)NCC(C)(C)C(N)=O)co2)cc1"
  quantity kind: "cytotoxicity at 10 µM"
  data value: -10.1
- molecule: "CCc1nc(CN2CCCN(C(=O)C3CCC3)CC2)cs1"
  quantity kind: "cytotoxicity at 10 µM"
  data value: 5.41
- molecule: "O=C(Cn1ccc2c(Cl)cccc21)N1CCCC1"
  quantity kind: "cytotoxicity at 10 µM"
  data value: 0.583

Reported cytotoxicity at 10 µM, molecule CNC(=O)NC(=O)CN1CCC(c2c[nH]c3ccc(OC)cc23)CC1 : ____
21.4

Name the reported cytotoxicity at 10 µM value associated with the molecule O=C(c1cc(F)cc(F)c1)N1CCC2(CC1)CC2
5.04

Find the recorded cytotoxicity at 10 µM belonging to Cc1cc(CNC(=O)NCC(O)c2cccc(C(F)(F)F)c2)no1 (stereo not given) and report it.
-6.79

Looking for the measured cytotoxicity at 10 µM of CCOc1cccc(CCNC(=O)Cc2ccccc2O)n1 , can you help?
-2.55

Return reported cytotoxicity at 10 µM; argument: CCOc1ccc(CC(=O)Nc2cnccc2SCCCO)cc1
7.94

====

Assay: Toxicity liver stage against HepG2, at 10uM
Format: cell-based
Set-up: test concentration 10 uM, cell line HepG2-A16-CD81EGFP
Details: human, HepG2-A16-CD81EGFP cells; read-out: INHIBITION
Threshold rule: cytotoxicity at 10 µM greater than or equal to -10% is true (1); below that, false (0).

- molecule: "CS(=O)(=O)CCNC(=O)C1(c2cccc(Cl)c2)CCCCC1"
  assigned class: "true (1)"
- molecule: "CC(C)N1CCc2c(c(COc3cccnc3)nn2CC2CC2)C1"
  assigned class: "true (1)"
- molecule: "Cc1ccc(CN2Cc3c(C(=O)N4CCOCC4)nn(C)c3C2)s1"
  assigned class: "true (1)"
- molecule: "CCN(CC)c1ncc2c(O)nc(C3CCNCC3)cc2n1"
  assigned class: "true (1)"
- molecule: "CN(C)CCN1C(=O)CO[C@@H]2CN(c3ncc(F)cn3)C[C@H]21"
  assigned class: "true (1)"
- molecule: "c1cnc(-c2cnc(N3CCCCC3)nc2C2CCCO2)cn1 (centres undefined)"
  assigned class: "true (1)"

Assess whether reported cytotoxicity at 10 µM for Cc1nc(CN2C(=O)C[C@@H]3[C@@H]2CCN3CC2CCOCC2)cs1 sits at -10% or higher.
false (0)

Could you verify whether the entry CN(C)C(=O)N1CCOCC2(CCN(c3ccccn3)C2)C1 (centres undefined) shows cytotoxicity at 10 µM of no less than -10%?
true (1)

====

Assay: Toxicity liver stage against HepG2, at 10uM
Type: cell-based
Set-up: test concentration 10 uM, cell line HepG2-A16-CD81EGFP
Conditions: human, HepG2-A16-CD81EGFP cells; read-out: INHIBITION
# reported cytotoxicity at 10 µM; entries follow
Supply the numeric figure in %, leaving out any unit text.

Guide cases for cytotoxicity at 10 µM, answers given:
- molecule: "Cc1cnn(CCC(=O)NCc2ccc(N(C)C)c(C)c2)c1"
  cytotoxicity at 10 µM / %: -3.03
- molecule: "CC(=O)N1CCCN(c2nccc(-c3c(C)nn(C)c3C)n2)CC1"
  cytotoxicity at 10 µM / %: 9.21
- molecule: "CC(C)C(=O)Nc1cccc(OCC(=O)NCc2ccccc2F)c1"
  cytotoxicity at 10 µM / %: -6.19

Data request, read-out cytotoxicity at 10 µM, for CCSCCC(=O)NCCn1nc2ccccn2c1=O
-9.53

Query: cytotoxicity at 10 µM; subject: N#Cc1ccc(CN(CC(N)=O)Cc2cccc(F)c2)cc1
-2.01

====

Measured cytotoxicity at 10 µM by item
Test: Toxicity liver stage against HepG2, at 10uM
Assay type: cell-based
Set-up: test concentration 10 uM, cell line HepG2-A16-CD81EGFP
Details: human, HepG2-A16-CD81EGFP cells; read-out: INHIBITION
A complete answer gives the number and then names the unit.

- compound: "Cc1ccc(-c2nc(CN3CCN(CC(=O)N(C)C)CC3)cs2)o1"
  cytotoxicity at 10 µM: "-22%"
- compound: "CCc1cnc(C)nc1NC1CC(=O)N(CC)C1 (stereo unspecified)"
  cytotoxicity at 10 µM: "1.07%"
- compound: "CN(C)CCN(C)C(=O)Cc1ccc2c(c1)OCCO2"
  cytotoxicity at 10 µM: "-7.94%"
- compound: "CC(NCC1CCN(CCO)CC1)c1ccc(Cl)cc1 (stereo unspecified)"
  cytotoxicity at 10 µM: "-9.12%"
- compound: "CN(Cc1ccncc1)C1CC2(CCN(c3ncc(F)cn3)CC2)C1"
  cytotoxicity at 10 µM: "52.4%"

Can you share its cytotoxicity at 10 µM? I mean this compound: CCCN1CCCn2c(nc(CNC(=O)c3nccn3C)cc2=O)C1
9.73%

For the compound CCn1nc(C)cc1C(=O)N1C[C@@H]2C[C@@H](c3nc(C)cs3)O[C@@H]2C1 , what cytotoxicity at 10 µM is on record?
3.39%

====

Catalogue of cytotoxicity at 10 µM values
Assay: Toxicity liver stage against HepG2, at 10uM
Assay type: cell-based
Parameters: test concentration 10 uM, cell line HepG2-A16-CD81EGFP
Conditions: human, HepG2-A16-CD81EGFP cells; read-out: INHIBITION
Value expressed in %; do not type the unit.

Consider the molecule O=C(CO)N1CCOC2(CCCN(c3ncc(F)cn3)C2)C1 (stereo unspecified) and give its measured cytotoxicity at 10 µM.
12.4

Returns the measured cytotoxicity at 10 µM for the input molecule. Input: O=S(=O)(NC1CCCCC12OCCO2)c1ccc2c(c1)OCCO2 (stereo unspecified)
-0.839

Name the recorded cytotoxicity at 10 µM for CC(C)c1nc2n(n1)CC(NCc1ccncc1)CC2 (stereo unspecified) .
-13.9

# lookup: cytotoxicity at 10 µM of Cc1oc(C(=O)O)cc1S(=O)(=O)Nc1ccc(Cl)c(Cl)c1
-0.532

Would you mind telling me what cytotoxicity at 10 µM value was observed for CN(C)CCOCC1CN(Cc2ccoc2)Cc2nnn(C)c21 (stereo unspecified) ?
-1.53

So what does the record say about cytotoxicity at 10 µM for Cn1ccnc1CN1CCC2(CC(=O)N(c3ccccn3)C2)C1 (stereo unspecified) ?
-74.6

# query: cytotoxicity at 10 µM of entry CSc1ncc(CN2CC(Oc3c(C)cccc3C)C2)cn1
10.3

Reported cytotoxicity at 10 µM for Cc1cnc(N2C[C@H]3CCN(CC4CC4)C[C@H]3C2)nc1 : what is it?
6.34

// lookup cytotoxicity at 10 µM for CC(C)(C)C(=O)N1CCC(c2nc(O)cc(-c3ccccn3)n2)CC1
-1.13

Dear colleague, I am looking for the recorded cytotoxicity at 10 µM of the following molecule: Cc1nccc([C@H]2C[C@@H]3CCN(Cc4ccco4)C[C@H]3O2)n1
-1.03

Looking for the measured cytotoxicity at 10 µM of Cn1cc(N2CCC3(CCN(Cc4nccs4)C3)C2=O)cn1 (stereo unspecified) , can you help?
3.76

====

Listing: cytotoxicity at 10 µM of selected compounds
Experiment: Toxicity liver stage against HepG2, at 10uM
Format: cell-based
Set-up: test concentration 10 uM, cell line HepG2-A16-CD81EGFP
Details: human, HepG2-A16-CD81EGFP cells; read-out: INHIBITION
Number only, in %; omit the unit.

- compound: "COC(=O)C1CCCN1C(=O)c1ccc(Br)cc1F (stereo unspecified)"
  cytotoxicity at 10 µM (%): 2.96

Looking for the measured cytotoxicity at 10 µM of CC(=O)c1c(F)cccc1N1CCC(C(N)=O)CC1 , can you help?
6.75
